melting point overview
valueType: melting point

>>> valueobserved("NCc1ccnc(N)c1")
"92 to 94 °C"
>>> valueobserved("CC1CN(S(=O)(=O)CCN)CC(C)O1 (stereo not drawn)")
"73 to 75 °C"
>>> valueobserved("OCCNc1ccccn1")
"64 to 66 °C"

---

melting point values for the compounds below.
valueType: melting point

>>> valueobserved("Cc1nc(-c2ccncc2)[nH]c(=O)c1CC(=O)O")
"252 to 254 °C"
>>> valueobserved("NC(=NO)c1ccc(OCc2cccnc2)cc1")
"165 to 167 °C"
>>> valueobserved("COc1ccc(F)cc1C(=O)O")
"87 to 91 °C"
>>> valueobserved("CCc1ccnc(C(=O)O)c1")
"109 to 111 °C"
>>> valueobserved("NC1=NC(=O)NC12CCCC2")
"250 to 252 °C"
